Could you please report measured MIC90 for the items listed next?
Test system: Klebsiella aerogenes
Assay: Antimicrobial activity against Enterobacter aerogenes clinical isolate after 18 to 22 hrs by broth microdilution method
Type: functional
Answers are plain numbers, in µg/mL.

>  <compound>
C[C@@H](O)[C@H]1C(=O)N2C(C(=O)O)=C(SCCNC=N)C[C@H]12 [IMIPENEM ANHYDROUS]

>  <MIC90 / µg/mL>
2

$$$$
>  <compound>
CCN1CCN(C(=O)N[C@@H](C(=O)N[C@@H]2C(=O)N3[C@@H]2SC(C)(C)[C@@H]3C(=O)O)c2ccccc2)C(=O)C1=O [PIPERACILLIN]

>  <MIC90 / µg/mL>
128

$$$$

Attention now turns to another entry.
Item C[C@H]1COc2c(N3CCN(C)CC3)c(F)cc3c(=O)c(C(=O)O)cn1c23.C[C@H]1COc2c(N3CCN(C)CC3)c(F)cc3c(=O)c(C(=O)O)cn1c23.O [LEVOFLOXACIN] has what recorded MIC90? 0.5
